System Under Test: ICE (Homo sapiens, UniProt P29466)
Sequence (P29466 120-297 limits assumed): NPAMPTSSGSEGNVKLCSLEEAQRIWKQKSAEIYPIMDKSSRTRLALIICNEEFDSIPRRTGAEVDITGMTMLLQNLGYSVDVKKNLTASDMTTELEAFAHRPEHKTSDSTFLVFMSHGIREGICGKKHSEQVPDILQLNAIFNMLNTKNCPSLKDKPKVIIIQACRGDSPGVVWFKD
Sequence (P29466 317-404 limits assumed): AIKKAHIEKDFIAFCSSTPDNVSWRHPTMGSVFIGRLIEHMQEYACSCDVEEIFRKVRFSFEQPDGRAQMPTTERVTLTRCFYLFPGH
Test Protocol: Enzyme assay with UV-visible substrate (visible ICE assay, Succinyl-Tyr-Val-Ala-Asp-pNitroanilide)
Type: biochemical
Details: Table 5
Measurement Name: log10 of Ki (log10 of the value in nM)
Please keep in mind that the values are log10 of Ki expressed in nM.

See these solved cases before continuing.
* O=C[C@H](CC(=O)O)NC(=O)[C@@H]1CCCN2C(=O)CC[C@H](NC(=O)OCc3ccccc3)C(=O)N12 | 1.20
* O=C[C@H](CC(=O)O)NC(=O)[C@@H]1CCCN2C(=O)CC[C@H](NC(=O)c3ccc4ncccc4c3)C(=O)N12 | 1.45
* O=C(O)CC(NC(=O)[C@@H]1CCCN2C(=O)CC[C@H](NC(=O)c3ccccc3)C(=O)N12)C(=O)COCc1ccccc1Cl (some centres unmarked) [Compound 227e] | 0.85
* Nc1ccc(C(=O)N[C@H]2CCC(=O)N3CCC[C@@H](C(=O)N[C@H](C=O)CC(=O)O)N3C2=O)cc1Cl | 0.08
* O=C[C@H](CC(=O)O)NC(=O)[C@@H]1CCCN2C(=O)CCN(NC(=O)c3ccccc3)C(=O)N12 | 1.67

Exercise: API: value(readout= log10 of Ki, system= ICE (Homo sapiens, UniProt P29466), query= COc1cc(C(=O)N[C@H]2CCC(=O)N3CCC[C@@H](C(=O)N[C@H](C=O)CC(=O)O)N3C2=O)cc(OC)c1OC )
Key: 0.90

Exercise: Subsequent entry: O=C[C@H](CC(=O)O)NC(=O)[C@@H]1CCCN2C(=O)CC[C@H](NC(=O)c3ccc4ccccc4n3)C(=O)N12
Key: -0.05

Exercise: Field entry: O=C[C@H](CC(=O)O)NC(=O)[C@@H]1CCCN2C(=O)CC[C@H](NC(=O)c3ccc(OCc4ccccc4)cc3)C(=O)N12
Key: 0.54

Exercise: And CC(=O)N1C[C@H](NC(=O)c2ccsc2)C(=O)N(CC(=O)N[C@H](C=O)CC(=O)O)c2ccccc21 ?
Key: 2.48

Exercise: Follow-up item: CCCC(=O)Nc1ccc(C(=O)N[C@H]2CCC(=O)N3CCC[C@@H](C(=O)N[C@H](C=O)CC(=O)O)N3C2=O)cc1
Key: 0.18

Exercise: CS(=O)(=O)N[C@H]1CCC(=O)N2CCC[C@@H](C(=O)N[C@@H](CC(=O)O)C(=O)c3nc4cc(Cl)cc(Cl)c4o3)N2C1=O [Compound 223b] , same question.
Key: 2.00

Exercise: And for CN(C)c1ccc(C(=O)N[C@H]2CCC(=O)N3CCC[C@@H](C(=O)N[C@H](C=O)CC(=O)O)N3C2=O)c2ccccc12 ?
Key: 0.00

Exercise: Same lookup for CC(=O)N1C[C@H](NC(=O)c2ccc3ccccc3c2)C(=O)N(CC(=O)N[C@H](C=O)CC(=O)O)c2ccccc21 [Compound 605n] , please.
Key: 1.08

Exercise: Now the molecule O=C[C@H](CC(=O)O)NC(=O)[C@@H]1CCCN2C(=O)CC[C@H](NC(=O)c3c(Cl)cccc3Cl)C(=O)N12
Key: 1.18

Exercise: Then COC1OC(=O)C[C@@H]1NC(=O)[C@@H]1CCCN2C(=O)CC[C@H](NC(=O)c3ccccc3)C(=O)N12 (some centres unmarked) [Compound 304a] ?
Key: 2.30

Exercise: Would you kindly repeat that for O=C[C@H](CC(=O)O)NC(=O)[C@@H]1CCCN2C(=O)CC[C@H](NC(=O)c3ccsc3)C(=O)N12 ?
Key: 1.23

Exercise: Similarly, O=C(O)C[C@H](NC(=O)[C@@H]1CCCN2C(=O)CC[C@H](NC(=O)c3ccccc3)C(=O)N12)C(=O)CSCc1ccccc1Cl [Compound 226e] ?
Key: 1.18

Exercise: Quick one: C[S+](CC(=O)[C@H](CC(=O)O)NC(=O)[C@@H]1CCCN2C(=O)CC[C@H](NC(=O)c3ccccc3)C(=O)N12)Cc1ccccc1Cl (some centres unmarked)
Key: 1.70

Exercise: CC(=O)N1C[C@H](NC(=O)O[C@H]2CCOC2)C(=O)N(CC(=O)N[C@H](C=O)CC(=O)O)c2ccccc21 ?
Key: 3.15
